Measured On: T1, human CD8αα homodimer, recombinant protein (Acro Biosystems) (human, UniProt P01732 22-182)
T1 construct: also called CD8αα antigen; biotinylated CD8α recombinant protein (CDA-H82E3)
Test Description: BLI kinetics, F(ab) on biotinylated CD8α (SA-XT sensor), 1:1 fit, 30 °C
Outcome Measure: kon (M⁻¹ s⁻¹)

CBD1034 (Fab, V domains shown, also called h1017-H2/L3 F(ab)) VH: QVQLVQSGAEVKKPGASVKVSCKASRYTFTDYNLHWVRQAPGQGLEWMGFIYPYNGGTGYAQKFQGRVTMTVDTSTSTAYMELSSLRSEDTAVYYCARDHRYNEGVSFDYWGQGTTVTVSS VL: DIQLTQSPSSLSASVGDRATITCRASESVDGFGNSFMNWYQQKPGKAPKLLIYLASNLESGVPSRFSGSGSRTDFTLTISSVQPEDFATYYCQQNNEDPYTFGQGTKLEIK: 20900
CBD1037 (Fab, V domains shown, also called h1017-H4/L2 F(ab)) VH: QVQLVQSGAEVKKPGASVKVSCKASRYTFTDYNLHWVRQAPGQGLEWMGFIYPYNGGTGYAQKFQGRVTMTVDYSTSTAYMELSSLRSEDTAVYYCARDHRYNEGVSFDYWGQGTTVTVSS VL: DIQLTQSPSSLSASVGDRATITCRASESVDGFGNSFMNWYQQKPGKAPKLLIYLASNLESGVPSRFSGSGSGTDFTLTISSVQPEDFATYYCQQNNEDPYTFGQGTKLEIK: 66000
CBD1032 (Fab, V domains shown, also called h1017-H1/L1 F(ab)) VH: QVQLVQSGAEVKKPGASVKVSCKASRYTFTDYNLHWVRQAPGQGLEWMGFIYPYNGGTGYAQKFQGRVTMTRDTSTSTVYMELSSLRSEDTAVYYCARDHRYNEGVSFDYWGQGTTVTVSS VL: DIQMTQSPSSLSASVGDRVTITCRASESVDGFGNSFMNWYQQKPGKAPKLLIYLASNLESGVPSRFSGSGSGTDFTLTISSLQPEDFATYYCQQNNEDPYTFGQGTKLEIK: 51500
CBD1017ch Fab (chimeric CT8 Fab) (Fab, V domains shown, Chimeric: variable regions of mouse CT8 (clone RPA-T8) with human constant parts; also called parental CBD1017ch Fab) VH: EVQLQQSGPELVKPGASVKISCKASRYTFTDYNLHWVKLSHEKSLEWIGFIYPYNGGTGYNQKFKNKAKLTVDYSSSTAYMELRSLTSVDAAVYYCARDHRYNEGVSFDYWGQGTTLTVSS VL: NIVLTQSPASLAVSLGQRATISCRASESVDGFGNSFMNWYQQKPGQSPKLLIYLASNLESGVPARFSGSGSRTDFTLTIDPVEADDAATYYCQQNNEDPYTFGGGTKLEIK: 69700
CBD1038 (Fab, V domains shown, also called h1017-H4/L3 F(ab)) VH: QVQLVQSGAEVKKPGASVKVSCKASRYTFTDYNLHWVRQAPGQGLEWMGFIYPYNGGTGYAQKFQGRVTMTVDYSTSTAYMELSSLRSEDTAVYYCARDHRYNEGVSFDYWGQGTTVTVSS VL: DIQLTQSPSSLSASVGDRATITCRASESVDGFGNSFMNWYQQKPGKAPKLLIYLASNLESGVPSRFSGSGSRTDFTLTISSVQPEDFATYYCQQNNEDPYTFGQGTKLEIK: 63300

Hello, the source for this data is patent US20250195685A1, in case you need it.
